Here the recorded IC50 is given for each entry.
# test-target: human orexin-2 receptor (Homo sapiens (Human), UniProt O43614)
# Sequence (O43614 whole entry): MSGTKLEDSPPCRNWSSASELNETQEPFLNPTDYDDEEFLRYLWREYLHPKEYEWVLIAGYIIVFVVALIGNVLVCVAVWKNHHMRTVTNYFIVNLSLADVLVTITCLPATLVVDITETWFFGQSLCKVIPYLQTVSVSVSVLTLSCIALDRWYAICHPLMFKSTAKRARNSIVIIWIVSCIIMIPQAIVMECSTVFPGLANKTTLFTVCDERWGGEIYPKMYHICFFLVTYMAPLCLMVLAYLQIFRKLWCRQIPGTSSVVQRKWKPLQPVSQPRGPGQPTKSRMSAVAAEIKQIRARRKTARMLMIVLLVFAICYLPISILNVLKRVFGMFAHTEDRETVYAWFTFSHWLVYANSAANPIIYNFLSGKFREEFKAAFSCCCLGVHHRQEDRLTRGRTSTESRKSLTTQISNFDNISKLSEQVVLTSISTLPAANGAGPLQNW
# assay-notes: In vitro assay: intracellular calcium measurements (FLIPR), antagonistic activity
# run-parameters: CHO cells expressing human orexin-2 receptor, orexin-A agonist, geometric mean, read-out: IC50 Ox2

>  <compound>
COc1cc2nc([C@]3(C)CCCN3C(=O)c3nc(C)ccc3-n3cccn3)[nH]c2cc1OC

>  <IC50 / µM>
0.104

$$$$
>  <compound>
COc1ccc2nc([C@@H]3CCCN3C(=O)c3nc(C)sc3-c3cccc(F)c3)[nH]c2c1

>  <IC50 / µM>
0.149

$$$$
>  <compound>
CSc1cccc2nc([C@@H]3CCCN3C(=O)c3cnc(C)nc3-c3cccc(Cl)c3)[nH]c12

>  <IC50 / µM>
0.116

$$$$
>  <compound>
COc1cc2nc([C@]3(C)CCCN3C(=O)c3cc(C)c(C)cc3-n3nccn3)[nH]c2cc1OC

>  <IC50 / µM>
0.016

$$$$
>  <compound>
C=C1CN(C(=O)c2cc(OC)ccc2-n2nccn2)C(C)(c2nc3cc(OC)ccc3[nH]2)C1 (centres unmarked)

>  <IC50 / µM>
0.035

$$$$
>  <compound>
C=C1C[C@@H](c2nc3cc(OC)ccc3[nH]2)N(C(=O)c2ncsc2-c2cccc(Cl)c2)C1

>  <IC50 / µM>
0.103

$$$$
>  <compound>
COc1cc2nc([C@]3(C)CCCN3C(=O)c3ccccc3-c3ccc(C)cc3)[nH]c2cc1OC

>  <IC50 / µM>
0.166

$$$$
>  <compound>
Cc1ccc(-c2cccc(F)c2)c(C(=O)N2CCC[C@@]2(C)c2nc3c(C)c(C)ccc3[nH]2)c1

>  <IC50 / µM>
0.004

$$$$
